# System: SNU475
# METHOD DESCRIPTION: CCK-8 cytotoxicity assay, SNU475
# Type: cell-based, human
# CONDITION SET: 72 h treatment
MEASUREMENT KIND: IC50 (µM)
Expressed in µM, but write only the number.

Sample records with IC50:
Input line: Data request, read-out IC50, for O=C(Nc1ccc([N+](=O)[O-])cc1Cl)c1cc(Cl)ccc1O [Niclosamide, niclosamide, reference compound]
Output line: 1.33

Input line: Data request, read-out IC50, for O=C(Nc1ccc(C(F)(F)F)cc1)c1cc(Cl)ccc1O
Output line: 7.2

Input line: Data request, read-out IC50, for CNC(=O)c1cc(Oc2ccc(NC(=O)Nc3ccc(Cl)c(C(F)(F)F)c3)cc2)ccn1
Output line: 4.2

Input line: Data request, read-out IC50, for CNC(=O)c1cc(Oc2ccc(NC(=O)Nc3ccc(Cl)c(C(F)(F)F)c3)c(F)c2)ccn1
Output line: 1.63

Continue with the next compound.
Input line: Data request, read-out IC50, for O=C(Nc1ccc(C(F)(F)F)cc1Cl)c1cc(Cl)ccc1O
Output line: 6.6
